Below: a set of entries, each annotated with reported MIC.
Test system: Staphylococcus aureus
Experiment: Antibacterial activity against vancomycin-susceptible Staphylococcus aureus Mu50omega after 48 hrs by Etest
Assay type: functional

Recorded MIC, per entry:
COc1cccc(OC)c1C(=O)N[C@@H]1C(=O)N2[C@@H]1SC(C)(C)[C@@H]2C(=O)O = > 256 µg/mL
CCC[C@@H]1C[C@@H](C(=O)N[C@@H]([C@H]2O[C@H](SC)[C@H](O)[C@@H](O)[C@H]2O)[C@H](C)Cl)N(C)C1 = > 256 µg/mL
CO/N=C(\C(=O)N[C@@H]1C(=O)N2C(C(=O)O)=C(CSc3nc(=O)c(O)nn3C)CS[C@H]12)c1csc(N)n1 = > 256 µg/mL
CN(C)[C@@H]1C(O)=C(C(N)=O)C(=O)[C@@]2(O)C(O)=C3C(=O)c4c(O)cccc4[C@@](C)(O)[C@H]3C[C@@H]12 = 48 µg/mL

Moving on to the next compound.
Observed MIC, Staphylococcus aureus, `CC[C@H]1OC(=O)[C@H](C)[C@@H](O[C@H]2C[C@@](C)(OC)[C@@H](O)[C@H](C)O2)[C@H](C)[C@@H](O[C@@H]2O[C@H](C)C[C@H](N(C)C)[C@H]2O)[C@](C)(O)C[C@@H](C)CN(C)[C@H](C)[C@@H](O)[C@]1(C)O` : > 256 µg/mL

----------
Below: a set of entries, each annotated with reported MIC.
Tested on: Staphylococcus aureus
Test: Antibacterial activity against vancomycin-susceptible Staphylococcus aureus Mu50omega after 48 hrs by Etest
Type: functional

Cc1onc(-c2ccccc2)c1C(=O)N[C@@H]1C(=O)N2[C@@H]1SC(C)(C)[C@@H]2C(=O)O [OXACILLIN] = 8 mg/L
C[C@@H](O)[C@H]1C(=O)N2C(C(=O)O)=C(SCCNC=N)C[C@H]12 [IMIPENEM ANHYDROUS] = 0.38 mg/L
CC1(C)S[C@@H]2[C@H](NC(=O)[C@H](N)c3ccccc3)C(=O)N2[C@H]1C(=O)O [AMPICILLIN] = 1 mg/L

The compound listed as CN[C@H](CC(C)C)C(=O)N[C@H]1C(=O)N[C@@H](CC(N)=O)C(=O)N[C@H]2C(=O)N[C@H]3C(=O)N[C@H](C(=O)N[C@H](C(=O)O)c4cc(O)cc(O)c4-c4cc3ccc4O)[C@H](O)c3ccc(c(Cl)c3)Oc3cc2cc(c3O[C@@H]2O[C@H](CO)[C@@H](O)[C@H](O)[C@H]2O[C@H]2C[C@](C)(N)[C@H](O)[C@H](C)O2)Oc2ccc(cc2Cl)[C@H]1O [VANCOMYCIN] shows MIC equal to 1 mg/L

The compound listed as C[C@H]1COc2c(N3CCN(C)CC3)c(F)cc3c(=O)c(C(=O)O)cn1c23.C[C@H]1COc2c(N3CCN(C)CC3)c(F)cc3c(=O)c(C(=O)O)cn1c23.O [LEVOFLOXACIN] shows MIC equal to > 32 mg/L

----------
Test system: Staphylococcus aureus
Assay: Antibacterial activity against vancomycin-susceptible Staphylococcus aureus Mu50omega expressing vraSn mutant gene after 48 hrs by Etest
Type: functional
Where a SMILES comes first, the peptide text is derived from it. Bridges are numbered along the chain shown (N, C = ends). [ ]: non-standard residue; d: D form. The star is where a group is joined. Ileψ(thiazoline)Cys = CC[C@H](C)[C@H](N)C1=N[C@H](C(=O)*)CS1; dOrn = NCCC[C@@H](N)C(=O)O
Below: a set of entries, each annotated with reported MIC.

The molecule listed as `CCCCCCCCCC(=O)N[C@@H](Cc1c[nH]c2ccccc12)C(=O)N[C@H](CC(N)=O)C(=O)N[C@@H](CC(=O)O)C(=O)N[C@@H]1C(=O)NCC(=O)N[C@@H](CCCN)C(=O)N[C@@H](CC(=O)O)C(=O)N[C@H](C)C(=O)N[C@@H](CC(=O)O)C(=O)NCC(=O)N[C@H](CO)C(=O)N[C@@H]([C@H](C)CC(=O)O)C(=O)N[C@@H](CC(=O)c2ccccc2N)C(=O)O[C@@H]1C` shows MIC equal to 1.5 µg/mL

The molecule listed as CC[C@H](C)[C@H](N)C1=N[C@H](C(=O)N[C@@H](CC(C)C)C(=O)N[C@H](CCC(=O)O)C(=O)N[C@H](C(=O)N[C@H]2CCCCNC(=O)[C@H](CC(N)=O)NC(=O)[C@@H](CC(=O)O)NC(=O)[C@H](Cc3cnc[nH]3)NC(=O)[C@@H](Cc3ccccc3)NC(=O)[C@H]([C@@H](C)CC)NC(=O)[C@@H](CCCN)NC2=O)[C@@H](C)CC)CS1 [BACITRACIN] ({Ileψ(thiazoline)Cys}-L[dE]IK[dOrn]I[dF]H[dD]N; lactam 4-C) shows MIC equal to 256 µg/mL

The molecule listed as `CN(C)[C@@H]1C(O)=C(C(N)=O)C(=O)[C@@]2(O)C(O)=C3C(=O)c4c(O)cccc4[C@@](C)(O)[C@H]3C[C@@H]12` shows MIC equal to 48 µg/mL

The molecule listed as `Cc1onc(-c2ccccc2)c1C(=O)N[C@@H]1C(=O)N2[C@@H]1SC(C)(C)[C@@H]2C(=O)O` shows MIC equal to > 256 µg/mL

The molecule listed as `CN[C@H](CC(C)C)C(=O)N[C@H]1C(=O)N[C@@H](CC(N)=O)C(=O)N[C@H]2C(=O)N[C@H]3C(=O)N[C@H](C(=O)N[C@H](C(=O)O)c4cc(O)cc(O)c4-c4cc3ccc4O)[C@H](O)c3ccc(c(Cl)c3)Oc3cc2cc(c3O[C@@H]2O[C@H](CO)[C@@H](O)[C@H](O)[C@H]2O[C@H]2C[C@](C)(N)[C@H](O)[C@H](C)O2)Oc2ccc(cc2Cl)[C@H]1O` shows MIC equal to 4 µg/mL
